target_desc: full-length human PKCι (Homo sapiens, UniProt P41743)
Construct: Recombinant, full-length human PKCι expressed in Sf21 insect cells is also commercially available
Sequence (P41743 1-596): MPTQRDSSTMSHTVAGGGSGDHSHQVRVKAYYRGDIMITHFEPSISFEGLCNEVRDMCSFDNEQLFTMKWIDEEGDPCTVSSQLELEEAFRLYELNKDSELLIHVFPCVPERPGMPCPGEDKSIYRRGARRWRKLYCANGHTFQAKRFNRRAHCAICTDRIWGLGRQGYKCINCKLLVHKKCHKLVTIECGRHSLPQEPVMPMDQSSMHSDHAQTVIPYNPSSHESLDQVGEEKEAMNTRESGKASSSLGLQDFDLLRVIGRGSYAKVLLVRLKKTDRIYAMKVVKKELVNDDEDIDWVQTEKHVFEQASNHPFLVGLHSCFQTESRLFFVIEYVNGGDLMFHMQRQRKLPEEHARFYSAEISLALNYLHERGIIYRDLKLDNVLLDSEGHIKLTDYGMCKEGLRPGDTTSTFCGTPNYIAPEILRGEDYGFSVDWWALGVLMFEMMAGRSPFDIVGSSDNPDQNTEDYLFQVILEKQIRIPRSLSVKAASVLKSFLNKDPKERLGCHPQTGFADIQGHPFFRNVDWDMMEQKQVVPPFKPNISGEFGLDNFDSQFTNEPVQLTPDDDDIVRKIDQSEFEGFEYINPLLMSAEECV
experiment_notes: PKCι IC50 IMAP assay, full-length PKCι at 150 μM ATP
condition_info: read-out: IC50 in IMAP assay against full length PKCi at 150 μM ATP
pIC50: −log10 of the molar value.
# pIC50 values compiled below

{"molecule": "CC(C)N1CCC(N(C)c2nc(-c3ccnc(Nc4c(F)cccc4F)c3)nc3cncc(C4CC4)c23)CC1", "pIC50": "> 7.00"}
{"molecule": "c1csc(-c2cc3c(-c4nc(N5CCNCC5)c5c(C6CC6)cncc5n4)ccnc3[nH]2)c1", "pIC50": "> 7.00"}
{"molecule": "COC(=O)[C@@H]1C[C@H](Nc2nc(-c3ccncc3)nc3cnccc23)CN1", "pIC50": "4.40 to 5.00"}

State its pIC50 for this molecule: FC(F)(F)c1ccnc(Nc2cc(-c3nc(N4CCNCC4)c4c(Cl)cncc4n3)ccn2)c1 > 7.00

State its pIC50 for this molecule: COc1cncc2nc(-c3ccnc(Nc4ccccc4)c3)nc(N3CCC(C#N)CC3)c12 5.00 to 6.00

State its pIC50 for this molecule: Fc1ccc(C(F)(F)F)cc1Nc1cc(-c2nc(N3CCNCC3)c3c(C4CC4)cncc3n2)ccn1 6.00 to 7.00

State its pIC50 for this molecule: COc1cncc2nc(-c3ccnc(Nc4ncccn4)c3)nc(N3CCNCC3)c12 6.00 to 7.00

State its pIC50 for this molecule: CC[C@H]1CN(c2nc(-c3ccncc3)nc3cnccc23)CCN1 5.00 to 6.00

State its pIC50 for this molecule: Fc1cnccc1-c1nc(N2CCNCC2)c2ccncc2n1 4.40 to 5.00

State its pIC50 for this molecule: FC(F)(F)C1CN(c2nc(-c3ccncc3)nc3c(Cl)nccc23)CCN1 (centres unmarked) 5.00 to 6.00

====

target_desc: full-length human PKCι (Homo sapiens, UniProt P41743)
Construct: Recombinant, full-length human PKCι expressed in Sf21 insect cells is also commercially available
Sequence (P41743 1-596): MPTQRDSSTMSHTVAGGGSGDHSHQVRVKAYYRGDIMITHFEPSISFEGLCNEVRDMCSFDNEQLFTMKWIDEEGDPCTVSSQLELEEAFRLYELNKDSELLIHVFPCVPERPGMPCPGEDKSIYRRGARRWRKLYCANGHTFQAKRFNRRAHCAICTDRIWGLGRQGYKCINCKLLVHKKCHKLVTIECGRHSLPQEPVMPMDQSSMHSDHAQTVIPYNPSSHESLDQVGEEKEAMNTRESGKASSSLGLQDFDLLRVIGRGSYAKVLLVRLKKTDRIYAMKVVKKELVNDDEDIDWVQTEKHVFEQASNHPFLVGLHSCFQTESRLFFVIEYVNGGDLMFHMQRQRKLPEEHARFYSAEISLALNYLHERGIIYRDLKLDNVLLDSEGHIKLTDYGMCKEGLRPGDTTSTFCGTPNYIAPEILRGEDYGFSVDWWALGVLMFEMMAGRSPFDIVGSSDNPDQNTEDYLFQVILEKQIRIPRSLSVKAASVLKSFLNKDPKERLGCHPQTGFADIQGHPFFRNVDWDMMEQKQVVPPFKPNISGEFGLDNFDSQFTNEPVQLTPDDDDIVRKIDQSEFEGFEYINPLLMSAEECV
experiment_notes: PKCι IC50 IMAP assay, full-length PKCι at 150 μM ATP
condition_info: read-out: IC50 in IMAP assay against full length PKCi at 150 μM ATP
pIC50: −log10 of the molar value.
# pIC50 values compiled below

Some compounds with known pIC50 results, for comparison:
{"compound": "Cn1c(Nc2cc(-c3nc(N4CCNCC4)c4c(C5CC5)cncc4n3)ccn2)nc2ccccc21", "result": "> 7.00"}
{"compound": "O[C@@H]1CN(c2nc(-c3ccnc4[nH]c(C(F)(F)F)cc34)nc3cncc(C4CC4)c23)CC[C@@H]1O (racemic)", "result": "6.00 to 7.00"}
{"compound": "CNc1nc(-c2ccnc(Nc3ccc(OCCN4CCCC4)cc3)c2)nc2cncc(OC)c12", "result": "4.40 to 5.00"}
{"compound": "Cc1cccc(Cl)c1Nc1cc(-c2nc(N3CCNCC3)c3c(C4CC4)cncc3n2)ccn1", "result": "> 7.00"}
{"compound": "COc1cncc2nc(-c3ccnc(Nc4ccccc4)c3)nc(N3CC[C@@H](CO)C3)c12", "result": "5.00 to 6.00"}

Give full-length human PKCι (Homo sapiens, UniProt P41743) pIC50 for the following compound: CN(C[C@@H](N)Cc1ccccc1)c1nc(-c2ccncc2)nc2cnccc12 4.40 to 5.00

Give full-length human PKCι (Homo sapiens, UniProt P41743) pIC50 for the following compound: Cn1nccc1-c1nccc2c(NC[C@@H](N)Cc3ccccc3)nc(-c3ccncc3)nc12 5.00 to 6.00

Give full-length human PKCι (Homo sapiens, UniProt P41743) pIC50 for the following compound: COc1cncc2nc(-c3ccnc(Nc4ccccc4)c3)nc(N3CCN[C@@H](CF)C3)c12 6.00 to 7.00
